- Assay system: SERCA2a (Sus scrofa, UniProt P11607)
- Sequence (P11607 1-997 isoform P11607-2): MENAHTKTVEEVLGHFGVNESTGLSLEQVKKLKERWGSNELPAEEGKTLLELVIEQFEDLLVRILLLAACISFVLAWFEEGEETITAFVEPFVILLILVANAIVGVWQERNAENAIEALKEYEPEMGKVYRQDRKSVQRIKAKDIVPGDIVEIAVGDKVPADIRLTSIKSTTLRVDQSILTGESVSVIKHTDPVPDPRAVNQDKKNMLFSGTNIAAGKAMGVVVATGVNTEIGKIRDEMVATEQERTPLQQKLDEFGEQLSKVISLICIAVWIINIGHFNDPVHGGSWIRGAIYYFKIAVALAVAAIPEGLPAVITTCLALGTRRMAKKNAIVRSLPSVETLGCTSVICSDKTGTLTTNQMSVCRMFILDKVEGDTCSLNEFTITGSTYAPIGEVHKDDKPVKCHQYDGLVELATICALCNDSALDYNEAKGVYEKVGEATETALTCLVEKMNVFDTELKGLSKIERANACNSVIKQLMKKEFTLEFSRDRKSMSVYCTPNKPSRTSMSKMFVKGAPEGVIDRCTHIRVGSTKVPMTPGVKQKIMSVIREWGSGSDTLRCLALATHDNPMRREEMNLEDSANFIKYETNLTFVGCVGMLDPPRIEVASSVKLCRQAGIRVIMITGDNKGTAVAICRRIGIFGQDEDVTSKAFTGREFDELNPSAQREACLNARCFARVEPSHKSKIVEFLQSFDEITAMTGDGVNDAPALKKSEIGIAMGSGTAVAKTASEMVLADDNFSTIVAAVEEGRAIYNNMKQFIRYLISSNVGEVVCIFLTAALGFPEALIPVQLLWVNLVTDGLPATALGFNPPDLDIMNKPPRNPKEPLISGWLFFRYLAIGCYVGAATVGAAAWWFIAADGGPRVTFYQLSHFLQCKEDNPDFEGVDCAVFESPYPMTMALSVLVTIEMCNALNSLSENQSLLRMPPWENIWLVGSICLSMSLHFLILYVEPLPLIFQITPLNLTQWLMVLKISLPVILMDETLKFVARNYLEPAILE
- Protocol details: oxalate-based Ca2+-uptake
- Type: biochemical, porcine
- Study conditions: Ca2+-Uptake [Ca2+]MAX EC50 (μM), [Ca2+]MAX (pCa 5.4), cardiac SR
Could you please report measured EC50 for the items listed next?
Provide the reading as a plain figure in µM.

Param readout = EC50; param system = SERCA2a (Sus scrofa, UniProt P11607); param query = `CCCN(Cc1ccccc1OC)C(=O)c1cc(F)cc(Br)c1` ; response: value 0.54

Param readout = EC50; param system = SERCA2a (Sus scrofa, UniProt P11607); param query = `CCCN(Cc1ccccc1OC)C(=O)c1cccc(Br)c1F` ; response: value 1.4

Param readout = EC50; param system = SERCA2a (Sus scrofa, UniProt P11607); param query = `CCCN(Cc1ccccc1OC)C(=O)c1ccc(F)c(Br)c1` ; response: value 0.8

Param readout = EC50; param system = SERCA2a (Sus scrofa, UniProt P11607); param query = `CCN(Cc1ccccc1OC)C(=O)c1cc(C)c(C)s1` ; response: value 0.77

Param readout = EC50; param system = SERCA2a (Sus scrofa, UniProt P11607); param query = `CCCN(Cc1ccccc1OC)C(=O)c1cc(C)c(C)s1` ; response: value 1.1

Param readout = EC50; param system = SERCA2a (Sus scrofa, UniProt P11607); param query = `CCCN(Cc1ccccc1OC)C(=O)c1cccc(C(F)(F)F)c1` ; response: value 1.5

Param readout = EC50; param system = SERCA2a (Sus scrofa, UniProt P11607); param query = `CCCN(Cc1ccccc1OC)C(=O)c1cc2c(s1)CCCC2` ; response: value 1.1

Param readout = EC50; param system = SERCA2a (Sus scrofa, UniProt P11607); param query = `CCCCN(Cc1ccccc1OC)C(=O)c1cc(C)c(C)s1` ; response: value 1.1

Param readout = EC50; param system = SERCA2a (Sus scrofa, UniProt P11607); param query = `CCCN(Cc1ccccc1OC)C(=O)c1cccc(Br)c1` ; response: value 0.36

The origin of these recorded values is paper PMC12900291.
